These data points were gathered from PubChem BioAssay (NCI).

Recorded TGI for the following molecules
Test system: MOLT-4 leukemia
Experiment: NCI tumour cell line growth inhibition, 48 h
Test Readout: TGI (µM)

1. O=C(Nc1ccc(Cl)c(Cl)c1)O/N=C\c1c(Cl)ccc([N+](=O)[O-])c1Cl	5.46
2. Cc1c2c(nn1C)CSCc1cc(n(C)n1)CSc1cc(c3ccccc3c1)OCCCc1c(C(=O)O)n(C)c3c-2c(Cl)ccc13	4.4
3. COc1ccc(NC(C)=O)cc1N1C(=O)/C(=C\c2cc(OC)c(OC)c(OC)c2)SC1c1ccccc1 (centres undefined)	65.6
4. O=C(NN1C(=O)CSC12CCCC2)c1[nH]c2ccc(Br)cc2c1-c1ccccc1	90.4

###

System: K-562 leukemia
Experiment: NCI tumour cell line growth inhibition, 48 h
Test Readout: TGI

1) COc1cc2c(cc1OC)C(Cl)C(c1ccc(Cl)c(Cl)c1)=C2Cl (stereo unspecified)	> 100 µM
2) C[CH2][Sn]([CH2]C)([O]C(=O)C(OC(C)=O)c1ccccc1)[O]C(=O)C(OC(C)=O)c1ccccc1 (stereo unspecified)	45.9 µM
3) C(CCCCc1nnc(N2CCCCC2)o1)CCCc1nnc(N2CCCCC2)o1	> 100 µM
4) CCOP(=O)(OCC)C1CC(n2cc(C)c(=O)[nH]c2=O)OC1CO (stereo unspecified)	> 100 µM
5) O=C1c2c(O)cccc2C(C2OC(CO)C(O)C(O)C2O)c2cc(CO)cc(O)c21 (stereo unspecified)	> 100 µM
6) O=C(Cn1c(C(=O)/C=C/c2cccs2)nc2ccccc21)c1ccc(Cl)cc1	45.7 µM
7) O=C(c1ccccc1)c1cccc(C(=O)c2ccccc2)c1	> 100 µM
8) O=C(Nc1ccc(Cl)cc1)Nc1ccc(Nc2nncc3ccccc23)cc1	26.4 µM
9) COc1ccc2c(c1)c(CC(=O)O)c(C)n2C(=O)c1ccc(Cl)cc1	> 100 µM
10) COc1ccc(C(=O)C(c2ccc(OC)cc2)C2(O)C(=O)Nc3c2ccc(Cl)c3C)cc1 (stereo unspecified)	> 100 µM
11) COc1ccc(C(=O)/C=C/c2c(Cl)c3c(c(OC)c2Cl)OCC(=O)N3)cc1	7.73 µM

###

System: NCI-H226 lung
Experiment: NCI tumour cell line growth inhibition, 48 h
Recorded TGI for the following compounds
Test Readout: TGI

1. O=C(Cn1c(C(=O)/C=C/c2cccs2)nc2ccccc21)c1ccc(Cl)cc1	> 100 µM
2. COc1cc2cc[n+]3c(C)c4cc(OC)c(OC)cc4c([O-])c3c2cc1OC	> 100 µM
3. CC1(C)CC(=O)c2c(nc3ccc4ccccc4c3c2-c2ccc(NC(=O)CCCCCCCCC(=O)Nc3ccc(-c4c5c(nc6ccc7ccccc7c46)CC(C)(C)CC5=O)cc3)cc2)C1	> 100 µM
4. CC(=O)C1C(=O)C(=O)N(c2ccccc2C(C)C)C1=O (stereo not drawn)	> 100 µM
5. COc1ccc(/C=C2\CCCC3=C2NC(N)=NC3c2ccc(OC)c(OC)c2)cc1OC (stereo not drawn)	20.2 µM
6. O=C1c2c(O)cccc2C(C2OC(CO)C(O)C(O)C2O)c2cc(CO)cc(O)c21 (stereo not drawn)	> 100 µM
7. COc1cc(/C=C2\Sc3scc(-c4cccc([N+](=O)[O-])c4)[n+]3C2=O)cc(OC)c1OC	34.3 µM
8. CC(=O)c1c(C(F)(F)F)n([O-])c2cc(Cl)c(Cl)cc2[n+]1=O	3.08 µM
9. CN(C)c1nc2oc(-c3ccccc3)c(-c3ccccc3)c2c2nnnn12	> 100 µM
10. CCOC(=O)NC(=O)c1cn(CCCCCCOC(=O)NCCCCCCNC(=O)OCCCCCCn2cc(C(=O)NC(=O)OCC)c(=O)[nH]c2=O)c(=O)[nH]c1=O	> 100 µM
11. COc1ccc(-c2c(C#N)c(S)n(NS(=O)(=O)c3ccc(C)cc3)c(=O)c2C#N)cc1	89.5 µM
12. CCCOC(=O)N1CCN(/[N+]([O-])=N/Oc2ccc([N+](=O)[O-])cc2[N+](=O)[O-])CC1	4.3 µM
13. c1ccc2c(c1)CCc1c-2n(CCN2CCOCC2)c2ccccc12	> 100 µM
14. Cc1cn(Cc2cnnn2CC2OC(n3cc(C)c(=O)[nH]c3=O)CC2O)c(=O)[nH]c1=O (stereo not drawn)	> 100 µM
15. O=c1[nH]nc(-c2ccccc2)n1/N=C/c1cccnc1	> 100 µM
16. C=C1c2[nH]c3c([N+](=O)[O-])c(OC)ccc3c2CCN1C(C)=O	> 100 µM
17. CCOC(=O)c1cnc2oc3ccc(O)cc3c2c1-c1ccccc1	> 100 µM
18. COC(=O)C1=C(c2cc(OC)c(OC)c(OC)c2)OC(c2ccc(OC)c(OC)c2)C1 (stereo not drawn)	> 100 µM

###

Test system: KM12 colon
Experiment: NCI tumour cell line growth inhibition, 48 h
Test Readout: TGI

1) O=C(/C=C/c1ccc([N+](=O)[O-])cc1)c1ccc2c3c(cccc13)CC2	14.2 µM
2) C=C1C(=O)OC2C1C(OC(=O)/C(C)=C/C)CC(O)(CCl)C1C(O)C3OC3(C)C21O (configuration not stated)	> 50 µM
3) O=C(COc1ccc(/C=C2\Oc3ccccc3C2=O)cc1)Nc1nc2c(s1)CCCC2	27.5 µM
4) COc1ccc(OC)c(NC(=O)CCC/C(CC(=O)c2ccc(O)c(OC)c2)=N\Nc2ccc([N+](=O)[O-])cc2)c1	> 100 µM
5) C/C(Nc1ccc(F)cc1)=C1/CCOC1=O	> 100 µM
6) CS[C@]12C(=O)C[C@@]3(C)[C@@H](CC[C@]3(O)C(=O)CO)[C@@H]1CCC1=CC(=O)CC[C@@]12C	> 100 µM
7) CCCCN(CCCC)c1ccc(C(=N)c2ccc(N(CCCC)CCCC)cc2)cc1	1.25 µM
8) O=C1c2ccccc2-c2c1c1ccccc1c(=O)n2CCN1CCOCC1	> 100 µM
9) NNC(=O)Cn1c2ccc(Br)cc2c2nc3ccccc3nc21	> 100 µM
10) Cc1c2c(n(CCc3ccc(Cl)cc3)c1C)NC(c1ccccc1)C(C#N)S2(=O)=O (configuration not stated)	> 100 µM
11) OC(CCNCc1ccccc1)c1ccc2ccccc2c1 (configuration not stated)	31.7 µM
12) Nc1nc(Nc2ccc(C3CCC(N4CCOCC4)CC3)cc2)nn1-c1ccccn1 (configuration not stated)	38 µM
13) COc1ccc(C(C#N)Cc2cc(OC)c(OC)c(OC)c2)cc1 (configuration not stated)	> 100 µM
14) COc1cc(/C=C2/C[C@H]3[C@@H]4CC=C5C[C@@H](OC(C)=O)CC[C@]5(C)[C@H]4CC[C@]3(C)NC2=O)cc(OC)c1OC	> 100 µM
15) Cc1ccc(S(=O)(=O)Nc2cccc3[nH]c(C(F)(F)F)nc23)cc1	26.8 µM
16) COc1ccccc1Cc1nc(-c2ccccc2)nn(C2OC(COC(C)=O)C(OC(C)=O)C(OC(C)=O)C2OC(C)=O)c1=S (configuration not stated)	> 100 µM
17) O=C(Nc1nc2ccccc2s1)c1cc([N+](=O)[O-])ccc1Cl	> 48.1 µM
18) CC1=NN(c2nc(N)nc(/C(C#N)=C/c3cccn3-c3cc(Cl)cc(Cl)c3)n2)C(C)(C)C1	> 100 µM
19) COc1ccc(C(SC2C(O)C(CO)OC2n2ccc(N)nc2=O)(c2ccccc2)c2ccc(OC)cc2)cc1 (configuration not stated)	71.2 µM
20) COc1ccc(OC)c(-c2c(C#N)c(N)nc(N3CCOCC3)c2C#N)c1	> 100 µM
21) COC(=O)c1cc(Cl)ccc1NC(=O)c1ccc([N+](=O)[O-])cc1	51.7 µM
22) O=c1ccn(CC2(CO)CC(Cc3ccccc3)C2)c(=O)[nH]1 (configuration not stated)	> 100 µM
23) O=c1[nH]nc(-c2ccccc2)n1/N=C/c1cccnc1	> 100 µM
24) O=C(Nc1cccc(NC(=O)Nc2cc(C(F)(F)F)ccc2Cl)c1)Nc1cc(C(F)(F)F)ccc1Cl	57.1 µM
25) C[Si](C)(C)c1ccc(-c2sc(-c3ccc([Si](C)(C)C)s3)c3c2C[Si]2(C3)Cc3c(-c4ccc([Si](C)(C)C)s4)sc(-c4ccc([Si](C)(C)C)s4)c3C2)s1	> 100 µM
26) CCOC(=O)NC(=O)c1cn(CCN2CCN(c3ncnc4nc[nH]c34)CC2)c(=O)[nH]c1=O	> 100 µM
27) C(CCCCc1nnc(N2CCCCC2)o1)CCCc1nnc(N2CCCCC2)o1	> 100 µM
28) C[C@]12CC[C@H]3[C@@H](CC[C@]4(O)C[C@@H](O)CC[C@]34/C=N/O)[C@@]1(O)CC[C@@H]2C1=COC(=O)C1	2.51 µM
29) CCOC(=O)c1cc2c(C(=O)c3ccc([N+](=O)[O-])cc3)c(C(C)=O)ccc2[nH]1	> 100 µM
30) O=C1/C(=N\S(=O)(=O)c2ccccc2)C([n+]2ccc(Cc3ccccc3)cc2)=C([O-])c2ccccc21	4.7 µM
31) CCCOC(=O)N1CCN(/[N+]([O-])=N/Oc2ccc([N+](=O)[O-])cc2[N+](=O)[O-])CC1	5.66 µM
32) COc1ccc(C(=O)C(c2ccc(OC)cc2)C2(O)C(=O)Nc3c2ccc(Cl)c3C)cc1 (configuration not stated)	> 100 µM
33) O=CC1CCCc2ccccc21 (configuration not stated)	> 100 µM
34) CC(C)c1cccc2sc(NC(=O)C(=O)C(C#N)c3cccc4ccccc34)nc12 (configuration not stated)	> 100 µM
35) O=C(Cn1c(C(=O)/C=C/c2cccs2)nc2ccccc21)c1ccc(Cl)cc1	46.6 µM
36) Cc1ccccc1NC(=O)C(=O)CC(=O)c1c(C)n([O-])c2ccccc2[n+]1=O	> 100 µM
37) C1CN(SSN2CCOCC2)CCO1	> 100 µM
